B1: OR4K15 (parent)
chain: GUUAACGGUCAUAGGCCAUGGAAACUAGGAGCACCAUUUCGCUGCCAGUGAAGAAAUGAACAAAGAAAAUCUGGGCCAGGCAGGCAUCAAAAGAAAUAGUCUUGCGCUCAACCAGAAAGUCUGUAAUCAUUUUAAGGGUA

Variants of: B1
Experiment: self-cleavage, relative activity (ratio to wild type); higher = more cleavage; in vitro, sequencing; the parent is a self-cleaving ribozyme
value kind: self-cleavage
Give bare numbers.

Consider the following illustrative entries.
{"columns": ["mutation code", "self-cleavage"],
 "data": [
  ["G20A A56G", 1.66],
  ["A89U U100C", 2.55],
  ["U39C A134U", 1.21],
  ["U49C C109U", 0.18],
  ["A52G G73A", 0.11]
]}

Each variant below has a recorded value; state its self-cleavage.
1. A67G U133C
2. U37C A78C
3. A4U G106A
4. C16A A60G
5. A91G A92G

Completion:
[1.12, 0.64, 0.14, 0.51, 0.51]
